Numbers sourced from PubChem BioAssay (NCI).

For each record, write down the corresponding growth inhibition.
- ASSAY_PROTOCOL: NCI Yeast Anticancer Drug Screen. Data for the sgs1 mgt1 strain (AID 161);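 note: 0% = growth of cultures given vehicle only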
- EXPERIMENTAL_SETUP: S. cerevisiae sgs1 mgt1 strain, at 5.0 µM (retest, dose inferred, filed as 0.5), stronger effect = higher value
This is part of a sample that, as a whole, favours compounds with a hit. Of some 79,000 tested, about 15% had one in any assay.
Just the number in %, nothing appended.

What does the record list as growth inhibition for C=C1CC(Cn2cc(Br)c(=O)[nH]c2=O)(c2ccc(-c3ccccc3)cc2)OC1=O (stereo not drawn) ?
30

What does the record list as growth inhibition for O=C1CSc2cc([N+](=O)[O-])ccc2N1 ?
-14

What does the record list as growth inhibition for S=C(N/N=C(/c1ccccc1)c1ccccn1)N1CCCCCC1 ?
75

What does the record list as growth inhibition for Cn1c2ccccc2c(=O)c2cc(NC(=O)CCCCC(=O)Nc3ccc4c(c3)c(=O)c3ccccc3n4C)ccc21 ?
-4

What does the record list as growth inhibition for CCCCCCCCCCC1CCC(=O)O1 (stereo not drawn) ?
6

What does the record list as growth inhibition for Cc1ccc(C2C(Cl)C(=O)N2n2cnc3ccccc3c2=O)cc1 (stereo not drawn) ?
-4

What does the record list as growth inhibition for COC(=O)c1ccc(CCC2=CC(=O)C(Br)=CC2=O)cc1 ?
10

What does the record list as growth inhibition for NNC(=O)CCc1ccc2ccc3ccccc3c2c1 ?
-6

What does the record list as growth inhibition for CCCC/C=C/C(CC)(C(=O)OCC)C(=O)OCC ?
-3

What does the record list as growth inhibition for COc1ccccc1C(=O)OCC1CCCN2CCCCC12 (stereo not drawn) ?
-17

What does the record list as growth inhibition for Cn1c(=O)c(-c2ccccc2)c(N=[N+]=[N-])c2ccccc21 ?
61

What does the record list as growth inhibition for Cc1ccc(CCC2=CCCc3c2ccc2ccccc32)cc1 ?
5

What does the record list as growth inhibition for O=C(/C=C\c1ccc(Cl)cc1Cl)c1cccs1 ?
0

What does the record list as growth inhibition for Cc1cc(O)cc(O)c1N=Nc1ccc([N+](=O)[O-])cc1 ?
3

What does the record list as growth inhibition for COc1cc(C2SCC(=O)N2c2nnc(C(F)(F)F)s2)cc(OC)c1OC (stereo not drawn) ?
-4

What does the record list as growth inhibition for CCCN(CCC)CC(O)c1cc(-c2ccc(Cl)cc2)nc2c(C)c(Cl)ccc12 (stereo not drawn) ?
36

What does the record list as growth inhibition for CCCCN1C(=O)N(c2ccc(OCC)cc2)C2N(CCCC)C1C(C)(C)C2(C)C (stereo not drawn) ?
12

What does the record list as growth inhibition for CC[n+]1ccc2c(C)c3[nH]c4ccc(O)cc4c3c(C)c2c1 ?
4

What does the record list as growth inhibition for CCCCCCc1cc(C(=O)OC/C(C)=N/NC(N)=O)c2ccccc2n1 ?
-4

What does the record list as growth inhibition for CCC(=O)OCCn1c2nc(=O)[nH]c(=O)c-2nc2cc(C)c(C)cc21 ?
2

What does the record list as growth inhibition for O=[N+]([O-])/C=C/c1ccc2ccccc2c1 ?
-35

What does the record list as growth inhibition for O=C(O)c1ccccc1-c1ccccc1C(=O)Nc1ccc2c(c1)Cc1ccccc1-2 ?
-7

What does the record list as growth inhibition for N/C(=N\OC(=O)NC(Cl)=C(Cl)Cl)c1cc(C(F)(F)F)cc(C(F)(F)F)c1 ?
-1

* * *

- ASSAY_PROTOCOL: NCI Yeast Anticancer Drug Screen. Data for the bub3 strain (AID 167)
- EXPERIMENTAL_SETUP: S. cerevisiae bub3 mutant strain, at 100.0 µM, stronger effect = higher value
Compounds without any hit were thinned out: in the full panel of roughly 79,000, 15% have a hit.
Think of 80% as a floor: if growth inhibition stands on it or above, it is true (1); beneath it, false (0).

Has OCC1OC(OCC(O)C(O)C(O)C(/C=N/Nc2ccccc2)=N/Nc2ccccc2)C(O)C(O)C1O (configuration not stated) a recorded growth inhibition greater than or equal to 80%?
false (0)

Has O=C(CC(=O)n1nc(-c2ccccc2)c(N=Nc2ccccc2C(=O)O)c1-c1ccccc1)Nc1ccc(Cl)cc1 a recorded growth inhibition greater than or equal to 80%?
false (0)

Has O=C(CCCN1CCC2(CC1)CC(=O)N(N1CCCCCC1)C2=O)c1ccc(F)cc1 a recorded growth inhibition greater than or equal to 80%?
false (0)

Has O=C(O)CNc1ccc(Cl)c(Cl)c1 a recorded growth inhibition greater than or equal to 80%?
true (1)

Has O=C(c1ccc(Cl)cc1Cl)C(Cl)Cl a recorded growth inhibition greater than or equal to 80%?
true (1)

Has O=C1Nc2ccccc2/C1=C/COc1ccccc1 a recorded growth inhibition greater than or equal to 80%?
true (1)

Has Cc1ccc(-n2cc(-c3ccc(Cl)cc3)c(C#N)c2N)cc1 a recorded growth inhibition greater than or equal to 80%?
false (0)

Has CC1CCN(CCC(=O)c2ccc(Cl)cc2)CC1 a recorded growth inhibition greater than or equal to 80%?
false (0)

Has CN1CCc2ccccc2C1Cc1ccccc1NC(=O)c1sc2ccccc2c1Cl (configuration not stated) a recorded growth inhibition greater than or equal to 80%?
true (1)

Has CC(C)[N+]([O-])(CCCNc1c2ccccc2nc2cccc([N+](=O)[O-])c12)C(C)C a recorded growth inhibition greater than or equal to 80%?
true (1)

Has COC(=O)C1=C(C(=O)OC)C2(C)C=CC1O2 (configuration not stated) a recorded growth inhibition greater than or equal to 80%?
true (1)

Has O=[N+]([O-])c1cccc2nccc(NCCCO)c12 a recorded growth inhibition greater than or equal to 80%?
false (0)

Has O=c1ssc2ncccc12 a recorded growth inhibition greater than or equal to 80%?
true (1)

Has COC(=O)C1=C(C)NC(C)=C(C(=O)OC)C1c1cccc(/[N+]([O-])=C/c2ccccc2)c1 a recorded growth inhibition greater than or equal to 80%?
true (1)

Has Nc1ncncc1C(C1=C(O)COC1=O)C1=C(O)COC1=O a recorded growth inhibition greater than or equal to 80%?
false (0)

Has S=c1[nH]nc(Nc2ccc(Cl)cc2)s1 a recorded growth inhibition greater than or equal to 80%?
false (0)

Has COC(=O)c1ccc([N+](=O)[O-])c(O)c1 a recorded growth inhibition greater than or equal to 80%?
true (1)

Has CCOC(=O)C(NC(=O)c1ccccc1)(N1CCN(c2cc3c(cc2F)c(=O)c(C(=O)O)cn3C2CC2)CC1)C(F)(F)F (configuration not stated) a recorded growth inhibition greater than or equal to 80%?
false (0)

Has CCS(=O)(=O)c1ccc(/C=C/C=N/NC(=S)NCC(C)C)cc1 a recorded growth inhibition greater than or equal to 80%?
false (0)

Has N#CN=Nc1cc(Cl)c(N=NC#N)cc1Cl a recorded growth inhibition greater than or equal to 80%?
true (1)

Has CN(C)c1nc2sc3c(c2c(=O)o1)CCCC3 a recorded growth inhibition greater than or equal to 80%?
false (0)

Has CCN(CC)CC[n+]1ccc2c(C)c3[nH]c4ccc(O)cc4c3c(C)c2c1 a recorded growth inhibition greater than or equal to 80%?
false (0)

Has CC(=O)Nc1ccc(/C=C(\C#N)c2ccc(C)cc2)cc1 a recorded growth inhibition greater than or equal to 80%?
false (0)

Has C(CCSC1=NCCN1)CSC1=NCCN1 (tested in a mixture with another compound) a recorded growth inhibition greater than or equal to 80%?
true (1)

Has CC1(C)[C@@H]2CC[C@]1(C)[C@H](OC(=O)CSC#N)C2 a recorded growth inhibition greater than or equal to 80%?
true (1)

Has CC(C)C1=CCC2C(=C1)CCC1C(C)(C(=O)O)CCCC21C (configuration not stated) (tested in a mixture with another compound) a recorded growth inhibition greater than or equal to 80%?
true (1)

Has O=C1C=CC(=C(c2ccccc2)c2ccccc2)c2ccccc21 a recorded growth inhibition greater than or equal to 80%?
false (0)

Has Cc1ccc(Nc2nc3c(=O)n(C)c(=O)n(C)c3nc2Nc2ccc(C)cc2)cc1 a recorded growth inhibition greater than or equal to 80%?
false (0)

Has CCC#CCCCOC(=O)c1cc([N+](=O)[O-])cc([N+](=O)[O-])c1 a recorded growth inhibition greater than or equal to 80%?
true (1)

Has CC(C)C1=CC2=C[C@H](O)[C@H]3C(C)(C)CCC[C@]3(C)C2=C(O)C1=O a recorded growth inhibition greater than or equal to 80%?
true (1)

Has CCC[CH2][Ge]([CH2]CCC)([CH2]CCC)[O]C(=O)C(OC)c1ccccc1 (configuration not stated) a recorded growth inhibition greater than or equal to 80%?
true (1)

Has CN(C)CCn1c2c3ccccc3ccc2c2oc(=O)c3ccccc3c21 a recorded growth inhibition greater than or equal to 80%?
true (1)

Has S=C(Nc1ccc(Cl)c(Cl)c1)SCc1ccc2c(c1)OCO2 a recorded growth inhibition greater than or equal to 80%?
true (1)

Has C[C@H](CCC(=O)NN)[C@H]1CC[C@H]2[C@@H]3CC[C@@H]4C[C@H](O)CC[C@]4(C)[C@H]3CC[C@]12C a recorded growth inhibition greater than or equal to 80%?
false (0)

Has NC(=NCc1ccccc1)N/N=C\c1ccnc2ccccc12 a recorded growth inhibition greater than or equal to 80%?
false (0)

Has O=C1C2CC[C@@H]3C(=O)C(Cl)(Cl)[C@@H]3CCC2C1(Cl)Cl (some centres not stated) a recorded growth inhibition greater than or equal to 80%?
false (0)

Has Cc1ccc(S(=O)(=O)NC(=O)NC2=NC(C)(C)N(c3ccc(Cl)c(Cl)c3)C(N)=N2)cc1 a recorded growth inhibition greater than or equal to 80%?
false (0)

Has COc1ccc(/C=C2\SC(=S)N(/C=C/c3nc4ccccc4[nH]c3=O)C2=O)cc1OC a recorded growth inhibition greater than or equal to 80%?
true (1)

Has Nc1ccn(C2OC(CO)C3[O][Sn]([c]4ccccc4)([c]4ccccc4)[O]C32)c(=O)n1 (configuration not stated) a recorded growth inhibition greater than or equal to 80%?
false (0)

Has COC1=CC(=O)C(C2(OC(C)C)OC(=O)C(Cl)=C2Cl)=CC1=O (configuration not stated) a recorded growth inhibition greater than or equal to 80%?
true (1)

Has Cc1cc(N=Nc2ccc(S(=O)(=O)[O-])cc2)cc(C(=O)[O-])c1[O-].NC1CCCCC1N.[Na+].[Pt+4] a recorded growth inhibition greater than or equal to 80%?
true (1)
